Cited source for all entries: the kinase profiling compilation of Christmann-Franck et al. (2016)

STUDY_TARGET: SRPK2 (human) (UniProt P78362)
Sequence (P78362 whole entry, looked up): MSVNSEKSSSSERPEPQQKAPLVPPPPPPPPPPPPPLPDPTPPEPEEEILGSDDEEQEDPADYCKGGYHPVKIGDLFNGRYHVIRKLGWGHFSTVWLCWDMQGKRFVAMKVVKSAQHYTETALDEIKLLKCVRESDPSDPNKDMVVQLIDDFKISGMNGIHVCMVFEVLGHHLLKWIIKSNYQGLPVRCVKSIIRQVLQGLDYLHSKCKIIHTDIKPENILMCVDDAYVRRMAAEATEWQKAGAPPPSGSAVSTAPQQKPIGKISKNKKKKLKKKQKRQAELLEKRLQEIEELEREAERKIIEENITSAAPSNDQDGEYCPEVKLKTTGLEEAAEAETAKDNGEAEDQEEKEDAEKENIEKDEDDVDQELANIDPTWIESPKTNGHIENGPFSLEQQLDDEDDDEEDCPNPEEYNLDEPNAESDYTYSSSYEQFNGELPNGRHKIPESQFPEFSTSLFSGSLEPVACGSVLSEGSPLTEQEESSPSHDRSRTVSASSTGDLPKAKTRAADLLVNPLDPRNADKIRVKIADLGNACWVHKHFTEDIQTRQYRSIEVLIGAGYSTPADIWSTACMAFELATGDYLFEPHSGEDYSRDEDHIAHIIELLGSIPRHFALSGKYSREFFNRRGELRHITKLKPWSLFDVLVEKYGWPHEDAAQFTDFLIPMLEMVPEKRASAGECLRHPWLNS
ASSAY_METHOD_TEXT: KINOMEscan competition binding
TEST_CONDITIONS: compound 10.0 µM
Please respond with reported kinase still bound, per cent of control for every item in the list.
Numbers only, in %.

SUBSTANCE_SMILES: O=c1cc(N2CCOCC2)oc2c(-c3cccc4c3sc3ccccc34)cccc12
PARAMETER: kinase still bound, per cent of control
MEASURED_NUMBER: 78

SUBSTANCE_SMILES: CNC(=O)c1cc(Oc2ccc(NC(=O)Nc3ccc(Cl)c(C(F)(F)F)c3)cc2)ccn1
PARAMETER: kinase still bound, per cent of control
MEASURED_NUMBER: 96

SUBSTANCE_SMILES: COCC(=O)NC/C=C/c1ccc2ncnc(Nc3ccc(Oc4ccc(C)nc4)c(C)c3)c2c1
PARAMETER: kinase still bound, per cent of control
MEASURED_NUMBER: 92

SUBSTANCE_SMILES: O=C1NC(=O)/C(=C/c2ccc3nccc(-c4ccncc4)c3c2)S1
PARAMETER: kinase still bound, per cent of control
MEASURED_NUMBER: 86

SUBSTANCE_SMILES: COc1cc2ncn(-c3cc(OCc4ccccc4C(F)(F)F)c(C(N)=O)s3)c2cc1OC
PARAMETER: kinase still bound, per cent of control
MEASURED_NUMBER: 34

SUBSTANCE_SMILES: COc1cc2ncnc(-n3nc(-c4ccccn4)nc3N)c2cc1OC
PARAMETER: kinase still bound, per cent of control
MEASURED_NUMBER: 88

SUBSTANCE_SMILES: CCN(CC)CCCCNc1ncc2cc(-c3cc(OC)cc(OC)c3)c(NC(=O)NC(C)(C)C)nc2n1
PARAMETER: kinase still bound, per cent of control
MEASURED_NUMBER: 100

SUBSTANCE_SMILES: CNC(=O)c1ccc(Nc2cc(Nc3ccccc3S(=O)(=O)C(C)C)c3cc[nH]c3n2)nc1
PARAMETER: kinase still bound, per cent of control
MEASURED_NUMBER: 24

SUBSTANCE_SMILES: CCN1CCN(C(=O)Cc2ccc(Nc3ncc(F)c(Nc4ccc(C(=O)Nc5ccccc5Cl)cc4)n3)cc2)CC1
PARAMETER: kinase still bound, per cent of control
MEASURED_NUMBER: 11

SUBSTANCE_SMILES: COc1ccc(N(C(=O)Oc2c(C)cccc2C)c2ccnc(Nc3ccc(N4CCN(C)CC4)cc3)n2)c(OC)c1
PARAMETER: kinase still bound, per cent of control
MEASURED_NUMBER: 42

Quick request: kinase still bound, per cent of control for each listed item, please.
1. C=CC(=O)Nc1ccc(CN(C(=O)Nc2c(Cl)c(OC)cc(OC)c2Cl)c2cc(Nc3ccc(N4CCN(C)CC4)cc3)ncn2)cc1
2. CS(=O)(=O)N1CCN(Cc2cc3nc(-c4cccc5[nH]ncc45)nc(N4CCOCC4)c3s2)CC1

Output:
100
100

The following compounds each have a reported value; give each one's kinase still bound, per cent of control.
1. C=CC(=O)Nc1cc(-n2c(=O)ccc3cnc4ccc(-c5cn[nH]c5)cc4c32)ccc1C
2. COc1cc(C(=O)N2CCC(N3CCN(C)CC3)CC2)ccc1Nc1ncc2c(n1)N(C)c1ccccc1C(=O)N2C
3. COc1cc(N2CCN(C)CC2)ccc1Nc1ncc2c(n1)N(C)c1ccccc1C(=O)N2C
4. C[C@@H](Oc1cc(-c2cnn(C3CCNCC3)c2)cnc1N)c1c(Cl)ccc(F)c1Cl
5. Cc1n[nH]c2ccc(-c3cncc(OC[C@@H](N)Cc4c[nH]c5ccccc45)c3)cc12
6. CCN(CC)CCCCNc1ncc2c(n1)N(C)C(=O)N(c1c(Cl)c(OC)cc(OC)c1Cl)C2

Output:
[96, 100, 100, 46, 22, 100]
